- procedure_summary: NCI Yeast Anticancer Drug Screen. Data for the mec2-1 strain (AID 157)
- recorded_conditions: S. cerevisiae mec2-1 strain, at 50.0 µM, stronger effect = higher value
Compounds without any hit were thinned out: in the full panel of roughly 79,000, 15% have a hit.
Quick reference for growth inhibition among some molecules
Write down the numeric answer in % and omit the unit.

Prompt line: Which measured growth inhibition value corresponds to `CCCCOC(=O)OCCOCCOC(=O)OCCCC` ?
Response line: 3.1

###

- procedure_summary: NCI Yeast Anticancer Drug Screen. Data for the bub3 strain (AID 167)
- recorded_conditions: S. cerevisiae bub3 mutant strain, at 50.0 µM, stronger effect = higher value
This is part of a sample that, as a whole, favours compounds with a hit. Of some 79,000 tested, about 15% had one in any assay.
Use 1 when the recorded growth inhibition is no lower than 30%; use -1 when it is lower.

Worked cases, answers included:
{"compound": "C/C(=N\\NC(N)=S)c1sc(-n2nc(-c3ccccc3)cc2-c2ccccc2)nc1C", "qualitative_label": -1}
{"compound": "O=C(O)CSc1c(Cl)c(=O)oc2ccc(Cl)cc12", "qualitative_label": -1}
{"compound": "O=C1c2cccc3cccc(c23)C1(O)S(=O)(=O)O (stereo unspecified)", "qualitative_label": -1}
{"compound": "O=C1CC(=O)c2cccc3cccc1c23", "qualitative_label": 1}
{"compound": "c1ccc([P+](Cc2ccc(C[P+](c3ccccc3)(c3ccccc3)c3ccccc3)cc2)(c2ccccc2)c2ccccc2)cc1", "qualitative_label": 1}

# evaluate next
Prompt line: // inclusive: growth inhibition at least 30%? input: `CCCCCCCCCCCCCCCCCCCl`
Response line: -1

###

- procedure_summary: NCI Yeast Anticancer Drug Screen. Data for the mec2-1 strain (AID 157)
- recorded_conditions: S. cerevisiae mec2-1 strain, at 50.0 µM, stronger effect = higher value
The panel holds about 79,000 compounds, 15% with a hit somewhere; the sample as a whole holds those more often.
Quick reference for growth inhibition among some molecules
Write down the numeric answer in % and omit the unit.

Guide cases for growth inhibition, answers given:
{"molecule": "Cc1cc(O)cc(O)c1C(=O)O[C@]1(C)C(=O)C=C2C=C(/C=C/C(=O)O)OC=C2C1=O", "unit_text": "%", "growth inhibition": -16.9}
{"molecule": "COC1/C=C/OC2(C)Oc3c(C)c(O)c4c(O)c(c(/C=N/N5CC(C)N(C(=O)c6ccccc6)C(C)C5)c(O)c4c3C2=O)NC(=O)C(C)=C/C=C/C(C)C(O)C(C)C(O)C(C)C(OC(C)=O)C1C (stereo unspecified)", "unit_text": "%", "growth inhibition": -13.6}

Prompt line: Which measured growth inhibition value corresponds to `CSC1=N/C(=C\c2ccc(C)cc2)C(=O)N1` ?
Response line: 0.3

Prompt line: Which measured growth inhibition value corresponds to `c1ccc([P+](Cc2ccc(C[P+](c3ccccc3)(c3ccccc3)c3ccccc3)cc2)(c2ccccc2)c2ccccc2)cc1` ?
Response line: 35.6

Prompt line: Which measured growth inhibition value corresponds to `COc1nc(OC)c2[nH]cnc2n1` ?
Response line: 15.3

Prompt line: Which measured growth inhibition value corresponds to `CCOCCCN` ?
Response line: 16.7

###

- procedure_summary: NCI Yeast Anticancer Drug Screen. Data for the mlh1 rad18 strain (AID 175)
- recorded_conditions: S. cerevisiae mlh1 rad18 strain growth inhibition; at 50.0 µM; stronger effect = higher value
About 79,000 compounds went through this panel and 15% of them were active in at least one assay; those are over-represented in the sample as a whole.
Quick reference for growth inhibition among some compounds
Write down the numeric answer in % and omit the unit.

Guide cases for growth inhibition, answers given:
{"compound": "CO/N=C1C=C/C(=N\\OC)C\\1", "unit_text": "%", "growth inhibition": 0.8}
{"compound": "Nc1cccc(CC(NC(=O)c2ccccc2)C(=O)O)c1 (centres undefined)", "unit_text": "%", "growth inhibition": -22.7}
{"compound": "Clc1ccc(N=CNc2ccc(Cl)cc2)cc1", "unit_text": "%", "growth inhibition": -2.35}

Prompt line: Which measured growth inhibition value corresponds to `Cc1ccc(-c2n[nH]c(=O)n2N)cc1` ?
Response line: 7.25

Prompt line: Which measured growth inhibition value corresponds to CCOC(=O)C1CC1c1c(C)c2cc3[nH]c(cc4nc(cc5nc(cc1[nH]2)C(C)=C5CCC(=O)OC)C(CCC(=O)OC)=C4C)c(C)c3C1CC1C(=O)OCC (centres undefined) ?
Response line: 39.2

Prompt line: Which measured growth inhibition value corresponds to `NC(=O)C(=O)c1ccccc1` ?
Response line: -19.7

Prompt line: Which measured growth inhibition value corresponds to `CCSCCCCSCC` ?
Response line: -2.2

Prompt line: Which measured growth inhibition value corresponds to `O=C1CSCN1N1CSCC1=O` ?
Response line: 18.8

Prompt line: Which measured growth inhibition value corresponds to `Cc1ccc([N+](=O)[O-])cc1N=C=O` ?
Response line: -56.3

Prompt line: Which measured growth inhibition value corresponds to `O=C(/C=C/c1ccc2c(c1)OCO2)c1cccc2ccccc12` ?
Response line: 5

Prompt line: Which measured growth inhibition value corresponds to COc1ccc(C(OC2OC(n3cnc4c(=S)nc(N)[nH]c43)CC2OC(C)=O)(c2ccccc2)c2ccc(OC)cc2)cc1 (centres undefined) ?
Response line: 24.4

Prompt line: Which measured growth inhibition value corresponds to OC1CCCCCCCCCCC1C(O)(C(F)(F)F)C(F)(F)F (centres undefined) ?
Response line: 98.8

Prompt line: Which measured growth inhibition value corresponds to `O=C(Nc1ccc(Cl)cc1)Nc1nnc2nc(CC(=O)c3cccc([N+](=O)[O-])c3Cl)c(=O)[nH]n12` ?
Response line: 9.55

Prompt line: Which measured growth inhibition value corresponds to `Cc1cccc(N=Cc2ccc(N(CCC#N)S(=O)(=O)c3ccccc3)cc2C)c1` ?
Response line: -9.2

Prompt line: Which measured growth inhibition value corresponds to `Cc1cccc(S(=O)(=O)c2ccccc2)c1` ?
Response line: 18.6

Prompt line: Which measured growth inhibition value corresponds to `CCOC(=O)c1sc(SC)nc1NC(=O)c1ccc([N+](=O)[O-])cc1` ?
Response line: -3.85

Prompt line: Which measured growth inhibition value corresponds to O=C(OCC1CCCO1)c1ccccc1Cl (centres undefined) ?
Response line: 0

Prompt line: Which measured growth inhibition value corresponds to `c1csc(-c2cc(-c3ccsc3)c(-c3cccs3)s2)c1` ?
Response line: -34.3

Prompt line: Which measured growth inhibition value corresponds to `CC(C)C1C(=O)CCCC1=O` ?
Response line: -3.35

Prompt line: Which measured growth inhibition value corresponds to `COc1ccc(OC)c2c(=O)cc(C)oc12` ?
Response line: -10.4
